All figures here come from the RNAGym collection of RNA variant scans (doi:10.7554/elife.80360).

B1: CPEB3 Ribozyme (parent)
chain: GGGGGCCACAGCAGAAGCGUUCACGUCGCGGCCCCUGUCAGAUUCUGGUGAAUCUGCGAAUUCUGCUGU

# Variants of: B1
# assay_name: self-cleavage, relative activity (ratio to wild type); higher = more cleavage; co-transcriptional
Entries annotated with measured self-cleavage
Provide a numeric answer; units are not to be included.

| residue_sequence | endpoint_value |
| --- | --- |
| GGGGUCCACAGCAGAAGCGUUCACGUCGCGGCCCCUGUCAGAUUCUGAUGAAUCUGCGAAUUCUGCUGU [G5U G48A] | 0.39 |
| GGGGGCCCCAGCAGAAGCGUUCACGUCGCGGCCCCUGUCAGACUCUGGUGAAUCUGCGAAUUCUGCUGU [A8C U43C] | 0.95 |
| GGGGGCCACAGCAGAAGCGUUCACGUCGCGGCCCCUAUCAGGUUCUGGUGAAUCUGCGAAUUCUGCUGU [G37A A42G] | 0.189 |
| GGGGGCCACAGCAGAAGCGUUCACGUCGCGGCCGCUGUCAGAUUCUGGUGAAUCUGCGAGUUCUGCUGU [C34G A60G] | 0.407 |

variant GGGGGCCACAGCAGAAGCGUUCACGUCGCGGCCCCUGUCAGAUUCUGGUGAAUCUCCCAAUUCUGCUGU [G56C G58C] , self-cleavage observed: 0.907

GET /value?item= GGGGGCCACAGCAGAAGCGUUCACGCCGCGGCCCCUGUCAGAUUAUGGUGAAUCUGCGAAUUCUGCUGU [U26C C45A] &field=self-cleavage returns 0.936

The variant identified as GGGGUCCACAGCAGAAGCGUUCACGUCGCGGCCCCUGUCAGAUUCUGGUGAAUCUGCGCAUUCUGCUGU [G5U A59C] registered its self-cleavage at 0.181

The measured self-cleavage associated with GGGGGCCACAGCAGAAGCGUACACGUCGCGGCCCCUGUCAGAUUCUGGUGAAUCUGCGAAUUCUGCUAU [U21A G68A] reads 1.02

Summary for this variant, GGCGGCCACAGCAGAAGCGUUCACGUCGCGGCCCGUGUCAGAUUCUGGUGAAUCUGCGAAUUCUGCUGU [G3C C35G] : self-cleavage is 0.0557

// self-cleavage value for GGGAGCCACAGCAGAAGCGUUCACGUCGCGGCCCCUGUCAGAUUCUGGUGAAUCUGCGAAUACUGCUGU [G4A U62A] : 0.601

// self-cleavage lookup, variant = GGGGGCCACAGCAGAAGCGUUUACGUCGCGGCCCCUGUCAGAUUCCGGUGAAUCUGCGAAUUCUGCUGU [C22U U46C] , result: 0.369

Memo: GGGGGCCACAGCAGAAGCGUUCACGUCGCGGCCCCUGUCAGGUUCUGGUGAAUCUGCGAAAUCUGCUGU [A42G U61A] , reported self-cleavage: 0.693

# variant GGGGGCCACAGCAGAAGCGUGCACGUCGCUGCCCCUGUCAGAUUCUGGUGAAUCUGCGAAUUCUGCUGU [U21G G30U] ; its self-cleavage = 0.214

# variant GGGGGCCACAGCAGAAGCGUUCACGUCGCGGCCCCUGUCAGAUUCUGGUGAGUCUGCGAAUUCUCCUGU [A52G G65C] ; its self-cleavage = 0.843
